Sourced from patent US20140056903A1

biological target: T1, human GFRα3 expressed with a C-terminal myc-myc-hexahistidine tag (human, UniProt O60609 32-374, biotinylated (sites not given) in ELISA format 2 and in the Octet cross-competition; not in SPR); assay: SPR, Ab captured, 37C
T1 construct: also called hGFRα3-mmh; hGFRα3-mmH
T1 sequence (O60609 other isoform, or with tags, fused parts or gaps limits assumed): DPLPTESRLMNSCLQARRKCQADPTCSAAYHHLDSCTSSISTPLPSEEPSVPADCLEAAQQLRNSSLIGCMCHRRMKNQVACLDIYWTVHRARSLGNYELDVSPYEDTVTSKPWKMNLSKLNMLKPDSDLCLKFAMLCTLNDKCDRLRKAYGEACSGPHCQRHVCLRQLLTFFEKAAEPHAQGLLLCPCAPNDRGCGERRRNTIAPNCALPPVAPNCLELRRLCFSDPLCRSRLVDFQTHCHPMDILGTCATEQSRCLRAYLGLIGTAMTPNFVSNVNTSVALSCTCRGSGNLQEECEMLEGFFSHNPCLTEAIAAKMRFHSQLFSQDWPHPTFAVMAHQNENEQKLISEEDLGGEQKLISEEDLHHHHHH
Some binders, each annotated with its measured t1/2.
quantity: t1/2 (min)

1) H4H2357S (antibody, human IgG4, V domains shown, human IgG4 Fc (H4H)) VH: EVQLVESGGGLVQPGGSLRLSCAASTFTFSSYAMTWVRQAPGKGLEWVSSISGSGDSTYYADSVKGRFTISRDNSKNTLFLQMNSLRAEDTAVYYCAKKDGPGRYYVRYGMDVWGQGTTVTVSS VL: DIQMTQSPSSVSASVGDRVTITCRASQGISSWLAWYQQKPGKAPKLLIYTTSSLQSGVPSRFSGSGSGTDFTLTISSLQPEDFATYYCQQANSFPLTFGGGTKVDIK ... 6
2) H4H2346S (antibody, human IgG4, V domains shown, human IgG4 Fc (H4H)) VH: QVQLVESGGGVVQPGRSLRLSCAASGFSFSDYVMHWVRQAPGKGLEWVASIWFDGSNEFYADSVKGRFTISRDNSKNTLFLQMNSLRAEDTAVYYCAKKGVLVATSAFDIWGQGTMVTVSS VL: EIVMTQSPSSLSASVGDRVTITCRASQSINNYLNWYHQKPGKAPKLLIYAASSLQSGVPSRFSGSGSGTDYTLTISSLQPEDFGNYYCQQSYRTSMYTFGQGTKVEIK ... 20
3) H4H2236N3 (antibody, human IgG4, V domains shown, human IgG4 Fc (H4H)) VH: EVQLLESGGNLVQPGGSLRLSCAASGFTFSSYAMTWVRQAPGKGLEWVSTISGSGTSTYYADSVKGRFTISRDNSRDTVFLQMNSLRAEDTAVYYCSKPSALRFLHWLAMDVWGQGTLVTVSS VL: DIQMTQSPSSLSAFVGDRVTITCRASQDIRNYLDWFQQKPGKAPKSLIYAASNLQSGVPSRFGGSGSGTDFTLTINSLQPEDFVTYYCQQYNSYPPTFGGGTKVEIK ... 15
4) H4H2345S (antibody, human IgG4, V domains shown, human IgG4 Fc (H4H)) VH: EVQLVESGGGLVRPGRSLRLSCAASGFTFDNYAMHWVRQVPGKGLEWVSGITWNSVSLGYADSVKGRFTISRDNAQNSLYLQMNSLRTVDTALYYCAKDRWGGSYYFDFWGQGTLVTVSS VL: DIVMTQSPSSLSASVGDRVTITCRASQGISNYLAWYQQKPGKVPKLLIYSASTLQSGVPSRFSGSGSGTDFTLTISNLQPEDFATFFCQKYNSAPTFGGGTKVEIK ... 1
5) H2aM2210N (antibody, mouse IgG2, V domains shown, chimeric, mouse IgG2 Fc (H2M/H2aM); also called H2M2210N) VH: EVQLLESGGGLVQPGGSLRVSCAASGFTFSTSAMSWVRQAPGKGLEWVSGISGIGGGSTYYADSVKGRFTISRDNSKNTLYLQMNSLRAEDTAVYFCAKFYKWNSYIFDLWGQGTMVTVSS VL: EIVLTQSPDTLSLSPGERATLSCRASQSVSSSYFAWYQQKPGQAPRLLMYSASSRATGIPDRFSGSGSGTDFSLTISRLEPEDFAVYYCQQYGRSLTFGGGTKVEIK ... 3
6) H4H2344S (antibody, human IgG4, V domains shown, human IgG4 Fc (H4H)) VH: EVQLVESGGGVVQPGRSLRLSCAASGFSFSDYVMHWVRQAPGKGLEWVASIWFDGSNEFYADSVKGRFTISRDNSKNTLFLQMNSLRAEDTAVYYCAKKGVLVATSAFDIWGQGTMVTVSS VL: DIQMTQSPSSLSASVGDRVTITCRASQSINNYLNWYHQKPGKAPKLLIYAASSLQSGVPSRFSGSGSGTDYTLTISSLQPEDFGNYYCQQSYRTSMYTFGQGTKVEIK ... 16
